Target of assay: Cathepsin S (Homo sapiens)
Sequence (P25774 whole entry): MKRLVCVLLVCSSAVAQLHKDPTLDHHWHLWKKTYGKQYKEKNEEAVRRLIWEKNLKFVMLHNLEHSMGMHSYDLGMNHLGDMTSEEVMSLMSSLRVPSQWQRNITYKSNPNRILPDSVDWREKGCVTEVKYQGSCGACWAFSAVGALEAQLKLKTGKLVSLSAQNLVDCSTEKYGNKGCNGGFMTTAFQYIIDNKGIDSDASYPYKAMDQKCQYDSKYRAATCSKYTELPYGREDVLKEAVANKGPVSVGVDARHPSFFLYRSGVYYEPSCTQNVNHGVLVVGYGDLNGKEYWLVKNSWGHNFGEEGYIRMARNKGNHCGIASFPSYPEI
Assay: Inhibition of human recombinant cathepsin S
pKi: −log10 of the molar value.

| Smi | Relation operator | pKi |
| --- | --- | --- |
| CCCC[C@H](NC(=O)OCC(C)C)C(=O)c1nnc(-c2ccco2)o1 | = | 6.42 |
| CCCC[C@H](NC(=O)C(=O)[C@H](CC(C)C)NC(=O)OCc1ccccc1)C(=O)c1nnc(-c2ccco2)o1 | > | 9.60 |
| CCCC[C@H](NC(=O)OCc1ccccc1)C(=O)c1nnc(-c2ccco2)o1 | = | 5.70 |

---

Reported Ki by item:
Assay: Inhibition of trypsin-like activity of human 20S proteasome
Property name: Ki

| Smi | Value observed |
| --- | --- |
| Cc1ccc(S(=O)(=O)N[C@@H](CC(=O)NCC(C)(C)C)C(=O)N[C@@H](C)C(=O)N[C@@H](CC(C)C)C(=O)c2nnc(-c3ccccc3)o2)cc1 | > 300 µM |
| Cc1ccc(S(=O)(=O)N[C@@H](CC(=O)NCC(C)(C)C)C(=O)N[C@](C)(CO)C(=O)N[C@@H](CC(C)C)C(=O)c2nnc(-c3ccccc3)o2)cc1 | > 900 µM |
| Cc1ccc(S(=O)(=O)N[C@@H](CC(=O)NCC(C)(C)C)C(=O)N[C@@H](C)C(=O)N[C@@H](CC(C)C)C(=O)c2nnc(-c3ccc(N(C)C)cc3)o2)cc1 | 290 µM |

---

Protein target, amino acids: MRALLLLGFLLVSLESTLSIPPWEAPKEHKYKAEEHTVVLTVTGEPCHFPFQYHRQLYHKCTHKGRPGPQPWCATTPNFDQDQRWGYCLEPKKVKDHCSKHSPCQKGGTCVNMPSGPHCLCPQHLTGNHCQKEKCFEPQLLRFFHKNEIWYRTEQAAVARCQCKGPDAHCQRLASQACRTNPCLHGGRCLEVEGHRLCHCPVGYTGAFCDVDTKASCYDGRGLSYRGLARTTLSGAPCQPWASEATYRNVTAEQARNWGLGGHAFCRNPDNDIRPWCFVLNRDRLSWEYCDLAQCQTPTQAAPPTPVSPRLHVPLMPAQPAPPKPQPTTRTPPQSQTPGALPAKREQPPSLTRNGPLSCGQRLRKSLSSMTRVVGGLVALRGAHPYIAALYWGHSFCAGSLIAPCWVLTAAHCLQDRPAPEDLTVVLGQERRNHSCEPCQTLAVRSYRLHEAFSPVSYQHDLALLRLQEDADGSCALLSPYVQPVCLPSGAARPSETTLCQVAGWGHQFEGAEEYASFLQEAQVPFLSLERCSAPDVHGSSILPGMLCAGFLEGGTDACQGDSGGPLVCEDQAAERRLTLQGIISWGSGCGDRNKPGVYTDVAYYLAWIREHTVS

| Smi | Units text | IC50 |
| --- | --- | --- |
| NC(N)=NCCC[C@H](NC(=O)CNC(=O)[C@@H](CCCN=C(N)N)NS(=O)(=O)Cc1ccccc1)C(=O)c1nccs1 | nM | 50 |

---

Target of assay: Cathepsin S (Homo sapiens)
Assay: Inhibition of human recombinant cathepsin S
pKi: −log10 of the molar value.
Reported pKi by item:
Property name: pKi

| Smi | Value observed |
| --- | --- |
| CC[C@H](NC(=O)[C@H](CS(=O)(=O)Cc1ccccc1)OC(=O)N1CCOCC1)C(=O)c1nc2ccccc2o1 | > 8.00 |
| CCCC[C@H](NC(=O)CCc1ccccc1)C(=O)c1nnc(-c2ccco2)o1 | 4.59 |
| O=C(N[C@@H](CCc1ccccc1)C(=O)c1ncco1)[C@@H](CC(=O)N1CCOCC1)CC1CCCCC1 | > 7.00 |
| CC(C)C[C@H](NC(=O)C1CCNCC1)C(=O)N[C@@H](CCc1ccccc1)C(=O)c1nc2cc(C(C)(C)C)ccc2o1 | 7.52 |
| CC(C)C[C@H](NC(=O)C1CCNCC1)C(=O)N[C@@H](CCc1ccccc1)C(=O)c1nc2cc(S(N)(=O)=O)ccc2o1 | 7.40 |
| CCC[C@H](NC(=O)[C@@H](CC(=O)N1CCOCC1)CC(C)(C)C)C(=O)c1nc2ccccc2o1 | > 7.00 |
| CCCC[C@H](NC(=O)[C@H](CS(=O)(=O)Cc1ccccc1)NC(=O)N1CCOCC1)C(=O)c1nnc(-c2ccccc2)o1 | > 7.00 |
| CCCC(F)(F)C[C@H](NC(=O)N1CCOCC1)C(=O)N[C@@H](CC)C(=O)c1nc(C2CC2)no1 | > 7.00 |

---

Target of assay: Cathepsin K (Homo sapiens)
Sequence (P43235 whole entry): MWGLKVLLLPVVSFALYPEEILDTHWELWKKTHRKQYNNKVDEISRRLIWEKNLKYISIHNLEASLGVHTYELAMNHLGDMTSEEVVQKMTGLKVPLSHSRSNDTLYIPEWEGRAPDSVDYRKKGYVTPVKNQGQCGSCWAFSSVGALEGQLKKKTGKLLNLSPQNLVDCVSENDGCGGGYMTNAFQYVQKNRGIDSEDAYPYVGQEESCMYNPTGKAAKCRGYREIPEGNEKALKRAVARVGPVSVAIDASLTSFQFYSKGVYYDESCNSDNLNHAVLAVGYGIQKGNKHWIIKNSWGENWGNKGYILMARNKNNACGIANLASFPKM
Assay: Inhibition of human recombinant cathepsin K
pKi: −log10 of the molar value.
Reported pKi by item:
Property name: pKi

| Smi | Property name | Relation operator | Value observed |
| --- | --- | --- | --- |
| CC(C)C[C@H](NC(=O)C1CCNCC1)C(=O)N[C@@H](CCc1ccccc1)C(=O)c1nc2cc(S(N)(=O)=O)ccc2o1 | pKi | = | 7.40 |
| CC(C)C[C@H](NC(=O)C1CCNCC1)C(=O)N[C@@H](CCc1ccccc1)C(=O)c1nc2cc(C(C)(C)C)ccc2o1 | pKi | = | 8.07 |
| CCCC[C@H](NC(=O)C(=O)[C@H](CC(C)C)NC(=O)OCc1ccccc1)C(=O)c1nnc(-c2ccco2)o1 | pKi | > | 9.60 |
| CCCC[C@H](NC(=O)OCC(C)C)C(=O)c1nnc(-c2ccco2)o1 | pKi | = | 6.30 |
| CCCC[C@H](NC(=O)OCc1ccccc1)C(=O)c1nnc(-c2ccco2)o1 | pKi | = | 5.52 |
| CC(C)C[C@H](NC(=O)C1CCNCC1)C(=O)N[C@@H](CCc1ccccc1)C(=O)c1nc2ccccc2o1 | pKi | = | 8.02 |
| CCCC[C@H](NC(=O)CCc1ccccc1)C(=O)c1nnc(-c2ccco2)o1 | pKi | = | 5.02 |

---

Below are IC50 values recorded for Prothrombin (Homo sapiens, UniProt P00734).

| Smi | Relation operator | IC50 (µM) |
| --- | --- | --- |
| N=C(N)NCCC[C@H](NC(=O)CN1CCN(Cc2ccccc2)CC1=O)C(=O)c1nccs1 | = | 14 |
| NC(N)=NCCC[C@H](NC(=O)CN1CCN[C@H](CCCN=C(N)N)C1=O)C(=O)c1nccs1 | = | 200 |
| CC(C)[C@H](NC(=O)[C@H](CC1CCCCC1)NC(=O)N[C@H](C)c1ccc(Br)cc1)C(=O)N[C@@H](CCCNC(=N)N)C(=O)c1nccs1 | = | 0.98 |
| N=C(N)NCCC[C@H](NC(=O)CN1CCN(C(=O)c2ccccc2)CC1=O)C(=O)c1nccs1 | = | 7 |
| N=C(N)NCCC[C@H](NC(=O)[C@@H]1CC[C@H]2CN(C(=O)CCc3ccccc3)CC(=O)N21)C(=O)c1nc2ccccc2s1 | < | 0.001 |
| NC(N)=NCCC[C@H](NC(=O)CN1CCN(S(=O)(=O)Cc2ccccc2)CC1=O)C(=O)c1nccs1 | = | 0.39 |
| N=C(N)NCCC[C@H](NC(=O)CN1CCN(S(=O)(=O)Cc2ccccc2)[C@H](Cc2ccccc2)C1=O)C(=O)c1nccs1 | = | 0.51 |
| NC(N)=NCCC[C@H](NC(=O)CN1CCN(S(=O)(=O)c2ccc(Cl)cc2)CC1=O)C(=O)c1nccs1 | = | 1 |

---

Target of assay: Plasma kallikrein (Homo sapiens, UniProt P03952)
Sequence (P03952 20-390 limits assumed): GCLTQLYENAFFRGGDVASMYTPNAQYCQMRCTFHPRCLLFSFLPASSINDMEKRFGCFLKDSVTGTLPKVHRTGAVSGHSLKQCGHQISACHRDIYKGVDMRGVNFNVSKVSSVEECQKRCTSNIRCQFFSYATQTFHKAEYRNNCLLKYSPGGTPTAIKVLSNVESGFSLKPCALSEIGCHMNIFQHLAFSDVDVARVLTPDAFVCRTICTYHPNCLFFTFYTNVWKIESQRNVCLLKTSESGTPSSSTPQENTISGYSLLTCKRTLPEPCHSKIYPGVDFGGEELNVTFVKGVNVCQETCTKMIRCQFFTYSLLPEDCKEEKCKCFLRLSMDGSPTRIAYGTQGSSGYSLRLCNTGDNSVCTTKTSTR
Sequence (P03952 391-638 limits assumed): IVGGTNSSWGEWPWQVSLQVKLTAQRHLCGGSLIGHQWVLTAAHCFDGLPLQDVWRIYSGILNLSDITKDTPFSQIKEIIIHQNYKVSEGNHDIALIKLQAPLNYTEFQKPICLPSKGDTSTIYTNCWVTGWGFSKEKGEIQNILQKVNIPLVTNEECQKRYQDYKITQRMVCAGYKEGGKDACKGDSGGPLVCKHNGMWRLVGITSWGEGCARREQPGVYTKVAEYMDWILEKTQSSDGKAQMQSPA
Assay: Inhibition of kallikrein
Property name: IC50 (nM)

| Smi | Value observed |
| --- | --- |
| N=C(N)NCCC[C@H](NC(=O)CNC(=O)[C@@H](CCCNC(=N)N)NS(=O)(=O)CCc1ccccc1)C(=O)c1nccs1 | 120 |
| NC(N)=NCCC[C@H](NC(=O)CNC(=O)[C@@H](CCCN=C(N)N)NS(=O)(=O)CCc1ccccc1)C(=O)c1nc2ccccc2o1 | 13 |
| NC(N)=NCCC[C@H](NC(=O)CNC(=O)[C@@H](CCCN=C(N)N)NS(=O)(=O)Cc1ccccc1)C(=O)c1nccs1 | 14 |
| N=C(N)NCCC[C@H](NC(=O)CNC(=O)[C@@H](CCCNC(=N)N)NS(=O)(=O)CCc1ccccc1)C(=O)c1nc2ccccc2s1 | 29 |

---

Assay: Inhibition of Trypanosoma cruzi prolyl endopeptidase Tc80
pIC50: −log10 of the molar value.

| Smi | pIC50 |
| --- | --- |
| CC(C)C[C@H](NC(=O)OCc1ccccc1)C(=O)NCC(=O)N1CCC[C@H]1C(=O)c1nc2ccccc2s1 | 6.70 |

---

Assay: Oral bioavailability in rat at 3 mg/kg
Type: ADME, organism-based
Study conditions: in vivo

| Molecule | bioavailability [%] |
| --- | --- |
| CC(C)C(NC(=O)Cn1c(-c2ccccc2)ncc(N)c1=O)C(=O)c1nnc(C(C)(C)C)o1 (racemic) | 50 |
